These data points were gathered from ChEMBL document CHEMBL4007508.

# System: Hepatocyte
# assayDetails: Induction of CYP3A4 mRNA expression in human primary hepatocyte after 24 hrs by real-time PCR relative to rifampicin
# Assay type: ADME, cell-based
# Design: concentration or dose not given beside the values
# experimentalConditions: hepatocytes
Label 1 (yes) when Activity is strictly below 80%; at or above that, label 0 (no).

Consider the worked cases shown below.
{"columns": ["molecule", "assignedLabel"],
 "data": [
  ["CCOC(=O)C1=C(CN2CCOC[C@H]2C(=O)O)NC(c2nccs2)=N[C@H]1c1cccc(F)c1Cl", "0 (no)"],
  ["COC(=O)C1=C(CN2CCOC[C@H]2C(=O)O)NC(c2nc(C(F)(F)F)cs2)=N[C@H]1c1ccc(F)cc1Cl", "1 (yes)"],
  ["COC(=O)C1=C(CN2CCOC[C@H]2C(=O)O)N=C(c2nccs2)N[C@H]1c1ccc(F)cc1Cl", "0 (no)"]
]}

Problem: For the molecule CCOC(=O)C1=C(CN2CCOC[C@H]2C(=O)O)NC(c2nccs2)=N[C@H]1c1ccc(F)cc1Cl , is Activity under 80%? 0 (no)

Problem: For the molecule COC(=O)C1=C(CN2CCOC[C@H]2C(=O)O)NC(c2nccs2)=N[C@H]1c1ccc(F)c(F)c1C , is Activity under 80%? 1 (yes)

---

# testedOn: Cytochrome P450 2C9 (Homo sapiens, UniProt P11712)
# Sequence (P11712 whole entry): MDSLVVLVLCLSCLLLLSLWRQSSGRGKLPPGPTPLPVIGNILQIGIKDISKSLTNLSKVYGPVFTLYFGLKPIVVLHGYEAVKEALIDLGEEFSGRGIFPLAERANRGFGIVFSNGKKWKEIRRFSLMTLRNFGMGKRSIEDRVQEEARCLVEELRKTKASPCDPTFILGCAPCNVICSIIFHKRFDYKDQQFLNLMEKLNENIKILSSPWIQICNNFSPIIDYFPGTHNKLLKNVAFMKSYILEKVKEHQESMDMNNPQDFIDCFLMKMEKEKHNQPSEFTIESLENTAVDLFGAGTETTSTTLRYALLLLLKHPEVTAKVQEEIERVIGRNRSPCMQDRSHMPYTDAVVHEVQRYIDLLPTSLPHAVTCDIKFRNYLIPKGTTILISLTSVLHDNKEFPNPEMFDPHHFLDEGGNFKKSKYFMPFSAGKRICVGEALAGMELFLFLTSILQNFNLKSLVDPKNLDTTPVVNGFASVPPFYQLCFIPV
pIC50: −log10 of the molar value.
valueType: pIC50

Record COC(=O)C1=C(CN2CCOC[C@H]2C(=O)O)N=C(c2nccs2)N[C@H]1c1ccc(F)cc1Cl : what is its pIC50 with Cytochrome P450 2C9 (Homo sapiens, UniProt P11712)? < 4.30

---

# testedOn: Cytochrome P450 2C19 (Homo sapiens, UniProt P33261)
# Sequence (P33261 whole entry): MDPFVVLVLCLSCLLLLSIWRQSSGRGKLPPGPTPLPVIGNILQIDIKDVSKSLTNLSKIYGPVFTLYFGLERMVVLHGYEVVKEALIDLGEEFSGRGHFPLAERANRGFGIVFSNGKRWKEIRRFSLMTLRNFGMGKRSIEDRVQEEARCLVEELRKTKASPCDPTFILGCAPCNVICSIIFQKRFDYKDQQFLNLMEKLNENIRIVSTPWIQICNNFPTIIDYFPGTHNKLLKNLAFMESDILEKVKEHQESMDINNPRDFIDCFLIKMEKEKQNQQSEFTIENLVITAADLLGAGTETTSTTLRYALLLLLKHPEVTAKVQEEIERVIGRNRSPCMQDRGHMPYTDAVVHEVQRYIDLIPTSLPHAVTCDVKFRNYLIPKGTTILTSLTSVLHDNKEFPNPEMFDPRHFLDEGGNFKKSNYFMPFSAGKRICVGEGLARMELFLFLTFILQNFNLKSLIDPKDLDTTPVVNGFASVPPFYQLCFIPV
valueType: IC50

Record COC(=O)C1=C(CN2CCOC[C@H]2C(=O)O)N=C(c2nccs2)N[C@H]1c1ccc(F)cc1Cl : what is its IC50 with Cytochrome P450 2C19 (Homo sapiens, UniProt P33261)? > 50 µM

---

# Tested on: Hepatitis B virus
# assayDetails: Antiviral activity against HBV infected in human HepG2(2.2.15) cells assessed as decrease in HBV genome replication after 5 days by qPCR method
# Format: functional, cell-based
# experimentalConditions: HepG2 2.2.15, 120 h
Readings of pEC50 for the listed molecules
// returns pEC50 (minus log10 of molar concentration), number only

See these solved cases before continuing.
{"columns": ["molecule", "testedOn", "numericValue"],
 "data": [
  ["COC(=O)C1=C(CN2CCOC[C@@]2(C)C(=O)O)NC(c2nccs2)=N[C@H]1c1ccc(F)cc1Cl", "Hepatitis B virus", 7.70],
  ["COC(=O)C1=C(CN2CCOC[C@@H]2C(=O)O)NC(c2nccs2)=N[C@H]1c1ccc(F)cc1Cl", "Hepatitis B virus", 7.10],
  ["COC(=O)C1=C(CN2CCOC[C@H]2CNS(C)(=O)=O)NC(c2nccs2)=N[C@H]1c1ccc(F)cc1Cl", "Hepatitis B virus", 8.40],
  ["COC(=O)C1=C(CN2CCOC[C@H]2C(=O)O)NC(c2nccs2)=N[C@H]1c1ccc(F)c(F)c1C", "Hepatitis B virus", 8.70],
  ["CC(C)OC(=O)C1=C(CN2CCOC[C@H]2C(=O)O)NC(c2nccs2)=N[C@H]1c1ccc(F)cc1Cl", "Hepatitis B virus", 7.77],
  ["COC(=O)C1=C(CN2CCOC[C@H]2C(=O)O)NC(c2nc(C)cs2)=N[C@H]1c1ccc(F)cc1Cl", "Hepatitis B virus", 8.15],
  ["COC(=O)C1=C(CN2CCOC[C@H]2C(=O)O)NC(c2ncc(F)cc2F)=N[C@H]1c1ccc(F)cc1Cl", "Hepatitis B virus", 8.10],
  ["CCCOC(=O)C1=C(CN2CCOC[C@H]2C(=O)O)NC(c2nccs2)=N[C@H]1c1ccc(F)cc1Cl", "Hepatitis B virus", 7.92],
  ["O=C(OCC(F)(F)F)C1=C(CN2CCOC[C@H]2C(=O)O)NC(c2nccs2)=N[C@H]1c1ccc(F)cc1Cl", "Hepatitis B virus", 7.89],
  ["COC(=O)C1=C(CN2CCOC[C@H]2C(=O)O)NC(c2nccn2C)=N[C@H]1c1ccc(F)cc1Cl", "Hepatitis B virus", 7.38]
]}

// query pEC50 value for entry COC(=O)C1=C(CN2CCOC[C@H]2C(N)=O)NC(c2nccs2)=N[C@H]1c1ccc(F)cc1Cl 8.52

// query pEC50 value for entry COC(=O)C1=C(CN2CCOC(C(=O)O)C2)NC(c2nccs2)=N[C@H]1c1ccc(F)cc1Cl (some centres not stated) 6.48

// query pEC50 value for entry CCOC(=O)C1=C(CN2CCOC[C@H]2C(=O)O)NC(c2nccs2)=N[C@H]1c1ccc(Br)cc1Cl 8.52

---

# assayDetails: Plasma clearance in mouse at 1 mg/kg, iv by LC-MS/MS analysis
# Format: ADME, organism-based
valueType: clearance (mL/min/kg)
Give the value, in units of mL/min/kg, as a plain number.

{"columns": ["molecule", "clearance [mL/min/kg]"],
 "data": [
  ["CCOC(=O)C1=C(CN2CCOC[C@H]2C(=O)O)NC(c2nccs2)=N[C@H]1c1cccc(F)c1Cl", 66]
]}

--- query ---
// query clearance value for entry COC(=O)C1=C(CN2CCOC[C@H]2C(=O)O)NC(c2nccs2)=N[C@H]1c1ccc(F)c(F)c1C 44

---

# assayDetails: AUC (0 to infinity) in mouse liver at 3 mg/kg, po by LC-MS/MS analysis
# Assay type: ADME, organism-based
# Design: dose 3 mg/kg, time infinity, route oral
Readings of AUC(0-inf) for the listed molecules
Give the value, in units of ng·h/mL, as a plain number.

// query AUC(0-inf) value for entry COC(=O)C1=C(CN2CCOC[C@H]2C(=O)O)NC(c2nccs2)=N[C@H]1c1ccc(F)c(F)c1C 9210

// query AUC(0-inf) value for entry COC(=O)C1=C(CN2CCOC[C@H]2C(=O)O)N=C(c2nccs2)N[C@H]1c1ccc(F)cc1Cl 11800

// query AUC(0-inf) value for entry CCOC(=O)C1=C(CN2CCOC[C@H]2C(=O)O)NC(c2nccs2)=N[C@H]1c1cccc(F)c1Cl 2000

---

Readings of Cmax for the listed compounds
# assayDetails: Cmax in mouse at 3 mg/kg, po by LC-MS/MS analysis
# Assay type: ADME, organism-based
# Parameters: dose 3 mg/kg, route oral
# experimentalConditions: in vivo
Give the value, in units of ng/mL, as a plain number.

{"columns": ["molecule", "Cmax (ng/mL)"],
 "data": [
  ["COC(=O)C1=C(CN2CCOC[C@H]2C(=O)O)NC(c2nccs2)=N[C@H]1c1ccc(F)c(F)c1C", 283],
  ["COC(=O)C1=C(CN2CCOC[C@H]2C(=O)O)N=C(c2nccs2)N[C@H]1c1ccc(F)cc1Cl", 413]
]}

--- query ---
// query Cmax value for entry CCOC(=O)C1=C(CN2CCOC[C@H]2C(=O)O)NC(c2nccs2)=N[C@H]1c1cccc(F)c1Cl 783

---

# assayDetails: Volume of distribution at steady state in mouse at 1 mg/kg, iv by LC-MS/MS analysis
# Format: ADME, organism-based
# experimentalConditions: in vivo, read-out: Vdss
valueType: Vd

// query Vd value for entry CCOC(=O)C1=C(CN2CCOC[C@H]2C(=O)O)NC(c2nccs2)=N[C@H]1c1cccc(F)c1Cl 4.1 L/kg

// query Vd value for entry COC(=O)C1=C(CN2CCOC[C@H]2C(=O)O)NC(c2nccs2)=N[C@H]1c1ccc(F)c(F)c1C 1.9 L/kg

// query Vd value for entry COC(=O)C1=C(CN2CCOC[C@H]2C(=O)O)N=C(c2nccs2)N[C@H]1c1ccc(F)cc1Cl 2.5 L/kg

---

# assayDetails: Base ionization constant, pKa of the compound
# Format: physicochemical
valueType: pKa
The answer should be a number; do not append a unit.

{"columns": ["molecule", "pKa"],
 "data": [
  ["COC(=O)C1=C(CN2CCOC[C@H]2C(=O)O)NC(c2nccs2)=N[C@H]1c1ccc(F)c(F)c1C", 5.7],
  ["CCOC(=O)C1=C(CN2CCOC[C@H]2C(=O)O)NC(c2nccs2)=N[C@H]1c1cccc(F)c1Cl", 5.7]
]}

// query pKa value for entry COC(=O)C1=C(CN2CCOC[C@H]2C(=O)O)N=C(c2nccs2)N[C@H]1c1ccc(F)cc1Cl 5.8

---

# assayDetails: Selectivity index, ratio of CC50 for HBV infected human HepDE19 cells to EC50 for HBV infected in human HepG2(2.2.15) cells
Readings of Ratio CC50/EC50 for the listed molecules
The answer should be a number; do not append a unit.

// query Ratio CC50/EC50 value for entry COC(=O)C1=C(CN2CCOC[C@H]2C(=O)O)NC(c2nccs2)=N[C@H]1c1ccc(F)c(F)c1Br 80000

// query Ratio CC50/EC50 value for entry O=C(OCC(F)(F)F)C1=C(CN2CCOC[C@H]2C(=O)O)NC(c2nccs2)=N[C@H]1c1ccc(F)cc1Cl 2077

// query Ratio CC50/EC50 value for entry COC(=O)C1=C(CN2CCOC[C@H]2C(=O)O)NC(c2nccs2)=N[C@H]1c1ccc(F)cc1C 12500

// query Ratio CC50/EC50 value for entry COC(=O)C1=C(CN2CCOC[C@H]2C(=O)O)NC(c2nccs2)=N[C@H]1c1ccc(C(F)(F)F)cc1Cl 431

// query Ratio CC50/EC50 value for entry CCOC(=O)C1=C(CN2CCOC[C@H]2C(=O)O)NC(c2nccs2)=N[C@H]1c1ccc(F)c(F)c1Cl 48333

// query Ratio CC50/EC50 value for entry CCOC(=O)C1=C(CN2CCOC[C@H]2C(=O)O)NC(c2nccs2)=N[C@H]1c1ccc(F)cc1 4133

// query Ratio CC50/EC50 value for entry COC(=O)C1=C(CN2CCOC[C@H]2C(=O)O)NC(c2ncc(F)cc2F)=N[C@H]1c1ccc(F)cc1Cl 2875

// query Ratio CC50/EC50 value for entry COC(=O)C1=C(CN2CCO[C@H](C(C)C)[C@H]2C(=O)O)NC(c2nccs2)=N[C@H]1c1ccc(F)cc1Cl 16200
